Test: Solubility in Simulated Fluids at 37° C.
Assay type: physicochemical
Details: FaSSIF
Quick reference: pH at 24 h of the listed items.
Please state the value as a number alone, without comment.

1) COc1cc(C)c2[nH]ccc2c1CN1CCC2(C[C@H]1c1ccc(C(=O)O)cc1)CC(F)(F)C2 [Form A] = 6.48
2) COc1cc(C)c2[nH]ccc2c1CN1CCC2(C[C@H]1c1ccc(C(=O)O)cc1)CC(F)(F)C2.Cc1ccc(S(=O)(=O)O)cc1 [Form C] = 6.25
3) COc1cc(C)c2[nH]ccc2c1CN1CCC2(C[C@H]1c1ccc(C(=O)O)cc1)CC(F)(F)C2.Cc1ccc(S(=O)(=O)O)cc1 [Form B] = 6.13

Let us move to another entry and its pH at 24 h.
Q: Specify reported pH at 24 h for the molecule shown: COc1cc(C)c2[nH]ccc2c1CN1CCC2(C[C@H]1c1ccc(C(=O)O)cc1)CC(F)(F)C2.Cl [Form D]
Ans: 6.17

meta.source: patent US20260159497A1
